# PROTOCOL SUMMARY: Pharmacokinetic analysis, plasma and tissue concentration
# Format: in vivo, CD1 mice
# EXPERIMENTAL CONDITIONS: CD1, mouse, liver, sc, 1 mg/kg
QUANTITY MEASURED: concentration at 24 h (ng/mL)
Hi! Could you send only the number? It should be in ng/mL, unit omitted.

Task item: Endpoint output: concentration at 24 h of "COC(=O)C[C@](O)(CCCC(C)(C)O)C(=O)O[C@@H]1C(OC)=C[C@]23CCCN2CCc2cc4c(cc2[C@H]13)OCO4" . Value?
Reply: 4.53

----------
# PROTOCOL SUMMARY: Pharmacokinetic analysis, plasma and tissue concentration
# Format: in vivo, CD1 mice
# EXPERIMENTAL CONDITIONS: CD1, mouse, spleen, sc, 1 mg/kg
QUANTITY MEASURED: concentration at 0.5 h (ng/mL)
Hi! Could you send only the number? It should be in ng/mL, unit omitted.

Task item: Endpoint output: concentration at 0.5 h of "COC(=O)C[C@](O)(CCCC(C)(C)O)C(=O)O[C@@H]1C(OC)=C[C@]23CCCN2CCc2cc4c(cc2[C@H]13)OCO4" . Value?
Reply: 1990

----------
# PROTOCOL SUMMARY: Pharmacokinetic analysis, plasma and tissue concentration
# Type: in vivo, CD1 mice
# EXPERIMENTAL CONDITIONS: CD1, mouse, kidney, po, 1 mg/kg
QUANTITY MEASURED: concentration at 2 h (ng/mL)
Hi! Could you send only the number? It should be in ng/mL, unit omitted.

Task item: Endpoint output: concentration at 2 h of "COC(=O)C[C@](O)(CCCC(C)(C)O)C(=O)O[C@@H]1C(OC)=C[C@]23CCCN2CCc2cc4c(cc2[C@H]13)OCO4" . Value?
Reply: 117

----------
# PROTOCOL SUMMARY: Pharmacokinetic analysis, plasma and tissue concentration
# Format: in vivo, CD1 mice
# EXPERIMENTAL CONDITIONS: CD1, mouse, large intestine, po, 1 mg/kg
QUANTITY MEASURED: concentration at 2 h (ng/mL)
Hi! Could you send only the number? It should be in ng/mL, unit omitted.

Task item: Endpoint output: concentration at 2 h of "COC(=O)C[C@](O)(CCCC(C)(C)O)C(=O)O[C@@H]1C(OC)=C[C@]23CCCN2CCc2cc4c(cc2[C@H]13)OCO4" . Value?
Reply: 528

----------
# PROTOCOL SUMMARY: Pharmacokinetic analysis, plasma and tissue concentration
# Assay type: in vivo, CD1 mice
# EXPERIMENTAL CONDITIONS: CD1, mouse, spleen, sc, 1 mg/kg
QUANTITY MEASURED: concentration at 2 h (ng/mL)
Hi! Could you send only the number? It should be in ng/mL, unit omitted.

Task item: Endpoint output: concentration at 2 h of "COC(=O)C[C@](O)(CCCC(C)(C)O)C(=O)O[C@@H]1C(OC)=C[C@]23CCCN2CCc2cc4c(cc2[C@H]13)OCO4" . Value?
Reply: 1290

----------
# PROTOCOL SUMMARY: Pharmacokinetic analysis, plasma and tissue concentration
# Format: in vivo, CD1 mice
# EXPERIMENTAL CONDITIONS: CD1, mouse, stomach, po, 1 mg/kg
QUANTITY MEASURED: concentration at 0.5 h (ng/mL)
Hi! Could you send only the number? It should be in ng/mL, unit omitted.

Task item: Endpoint output: concentration at 0.5 h of COC(=O)C[C@](O)(CCCC(C)(C)O)C(=O)O[C@@H]1C(OC)=C[C@]23CCCN2CCc2cc4c(cc2[C@H]13)OCO4 [HHT, homoharringtonine] . Value?
Reply: 1360
